Recorded pIC50 values for a group of molecules are listed next.
Target: factor Xa (Homo sapiens)
Sequence (P00742 235-488 limits assumed): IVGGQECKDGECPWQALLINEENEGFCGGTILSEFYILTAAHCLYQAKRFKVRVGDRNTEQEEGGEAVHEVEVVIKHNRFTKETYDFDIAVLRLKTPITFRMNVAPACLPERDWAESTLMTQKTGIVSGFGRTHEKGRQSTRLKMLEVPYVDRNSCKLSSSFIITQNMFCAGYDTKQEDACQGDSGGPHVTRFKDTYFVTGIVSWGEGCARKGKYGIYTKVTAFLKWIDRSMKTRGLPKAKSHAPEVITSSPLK
Sequence (P00742 41-179 limits assumed): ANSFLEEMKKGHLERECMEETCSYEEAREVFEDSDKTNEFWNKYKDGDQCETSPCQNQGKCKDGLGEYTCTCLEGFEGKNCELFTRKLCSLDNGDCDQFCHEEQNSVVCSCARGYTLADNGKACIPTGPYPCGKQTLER
Recall that pIC50 is obtained by taking minus log10 of the concentration measured in molar.

# Molecule, Study system, pIC50
measured = [
    ("N=C(N)c1cccc(OC(C(=O)Nc2ccc(N3CCCCC3=O)cc2)c2ccccc2)c1 (stereo not drawn)", "factor Xa (Homo sapiens)", 7.49),
    ("CCCC(Oc1cccc(C(=N)N)c1)C(=O)Nc1ccc(N2CCOCC2)cc1 (stereo not drawn)", "factor Xa (Homo sapiens)", 6.52),
]

API: the following record is the query input.
Query string: Given the entry N=C(N)c1cccc(OC(C(=O)Nc2ccc(N3CCOCC3)cc2)c2ccccc2)c1 (stereo not drawn) , what pIC50 was observed with factor Xa (Homo sapiens)?
Result string: 7.05
